Reference for the values: the supplement of paper PMC11246515

Assign total protein half-life in vivo to each entry below.
test_name: total protein half-life in vivo (active degradation + dilution); higher = more stable protein
condition_info: E. coli NCM3722 delta-lon; growth: N-lim chemostat; doubling time 6 h
One number for each entry, in h.

As a guide, the following entries are already answered.
MAISSRNTLLAALAFIAFQAQAVNVTVAYQTSAEPAKVAQADNTFAKESGATVDWRKFDSGASIVRALASGDVQIGNLGSSPLAVAASQQVPIEVFLLASKLGNSEALVVKKTISKPEDLIGKRIAVPFISTTHYSLLAALKHWGIKPGQVEIVNLQPPAIIAAWQRGDIDGAYVWAPAVNALEKDGKVLTDSEQVGQWGAPTLDVWVVRKDFAEKHPEVVKAFAKSAIDAQQPYIANPDVWLKQPENISKLARLSGVPEGDVPGLVKGNTYLTPQQQTAELTGPVNKAIIDTAQFLKEQGKVPAVANDYSQYVTSRFVQ: 5.56
MTVQDYLLKFRKISSLESLEKLYDHLNYTLTDDQELINMYRAADHRRAELVSGGRLFDLGQVPKSVWHYVQ: 5.67
MTQFNPVDHPHRRYNPLTGQWILVSPHRAKRPWQGAQETPAKQVLPAHDPDCFLCAGNVRVTGDKNPDYTGTYVFTNDFAALMSDTPDAPESHDPLMRCQSARGTSRVICFSPDHSKTLPELSVAALTEIVKTWQEQTAELGKTYPWVQVFENKGAAMGCSNPHPHGQIWANSFLPNEAEREDRLQKEYFAEQKSPMLVDYVQRELADGSRTVVETEHWLAVVPYWAAWPFETLLLPKAHVLRITDLTDAQRSDLALALKKLTSRYDNLFQCSFPYSMGWHGAPFNGEENQHWQLHAHFYPPLLRSATVRKFMVGYEMLAETQRDLTAEQAAERLRAVSDIHFRESGV: 5.17
MKLVGSYTSPFVRKLSILLLEKGITFEFINELPYNADNGVAQFNPLGKVPVLVTEEGECWFDSPIIAEYIELMNVAPAMLPRDPLESLRVRKIEALADGIMDAGLVSVREQARPAAQQSEDELLRQREKINRSLDVLEGYLVDGTLKTDTVNLATIAIACAVGYLNFRRVAPGWCVDRPHLVKLVENLFSRESFARTEPPKA [P0ACA1]: 4.31
MSQPLLSVNGLMMRFGGLLAVNNVNLELYPQEIVSLIGPNGAGKTTVFNCLTGFYKPTGGTILLRDQHLEGLPGQQIARMGVVRTFQHVRLFREMTVIENLLVAQHQQLKTGLFSGLLKTPSFRRAQSEALDRAATWLERIGLLEHANRQASNLAYGDQRRLEIARCMVTQPEILMLDEPAAGLNPKETKELDELIAELRNHHNTTILLIEHDMKLVMGISDRIYVVNQGTPLANGTPEQIRNNPDVIRAYLGEA [P0A9S7]: 6.07

Provide total protein half-life in vivo values for the following items, in order.
1. MNIVVLISGNGSNLQAIIDACKTNKIKGTVRAVFSNKADAFGLERARQAGIATHTLIASAFDSREAYDRELIHEIDMYAPDVVVLAGFMRILSPAFVSHYAGRLLNIHPSLLPKYPGLHTHRQALENGDEEHGTSVHFVTDELDGGPVILQAKVPVFAGDSEDDITARVQTQEHAIYPLVISWFADGRLKMHENAAWLDGQRLPPQGYAADE
2. MLNKLSLLLKDAGISLTDHQKNQLIAYVNMLHKWNKAYNLTSVRDPNEMLVRHILDSIVVAPYLQGERFIDVGTGPGLPGIPLSIVRPEAHFTLLDSLGKRVRFLRQVQHELKLENIEPVQSRVEEFPSEPPFDGVISRAFASLNDMVSWCHHLPGEQGRFYALKGQMPEDEIALLPEEYQVESVVKLQVPALDGERHLVVIKANKI [P0A6U5]

1. 4.68
2. 5.33

###

test_name: total protein half-life in vivo (active degradation + dilution); higher = more stable protein
condition_info: E. coli NCM3722 delta-smpB; growth: N-lim chemostat; doubling time 6 h
assay_readout: total protein half-life in vivo (h)
Numbers only, in h.

MSAQKPGLHPRNRHHSRYDLATLCQVNPELRQFLTLTPAGEQSVDFANPLAVKALNKALLAHFYAVANWDIPDGFLCPPVPGRADYIHHLADLLAEASGTIPANASILDIGVGANCIYPLIGVHEYGWRFTGSETSSQALSSAQAIISSNPGLNRAIRLRRQKESGAIFNGIIHKNEQYDATLCNPPFHDSAAAARAGSERKRRNLGLNKDDALNFGGQQQELWCEGGEVTFIKKMIEESKGFAKQVMWFTSLVSRGENLPPLYRALTDVGAVKVVKKEMAQGQKQSRFIAWTFMNDEQRRRFVNRQR: 4.11
MTMNSFERRNKIIQLVNEQGTVLVQDLAGVFAASEATIRADLRFLEQKGVVTRFHGGAAKIMSGNSETETQEVGFKERFQLASAPKNRIAQAAVKMIHEGMTDPTHVIWTQA: 6.1
MSDVLRPYRDLFPQIGQRVMIDDSSVVIGDVRLADDVGIWPLVVIRGDVHYVQIGARTNIQDGSMLHVTHKSSYNPDGNPLTIGEDVTVGHKVMLHGCTIGNRVLVGMGSILLDGAIVEDDVMIGAGSLVPQNKRLESGYLYLGSPVKQIRPLSDEEKAGLRYSANNYVKWKDEYLDQGNQTQP [P0A9W9]: 4.72

We next turn to a different sequence, shown below.
// fetch total protein half-life in vivo given entry MPLLHLLRQNPVIAAVKDNASLQLAIDSECQFISVLYGNICTISNIVKKIKNAGKYAFIHVDLLEGASNKEVVIQFLKLVTEADGIISTKASMLKAARAEGFFCIHRLFIVDSISFHNIDKQVAQSNPDCIEILPGCMPKVLGWVTEKIRQPLIAGGLVCDEEDARNAINAGVVALSTTNTGVWTLAKKLL
3.74

###

test_name: total protein half-life in vivo (active degradation + dilution); higher = more stable protein
condition_info: wild type E. coli NCM3722; growth: C-lim chemostat; doubling time 3 h
Assign total protein half-life in vivo to each entry below.
One number for each entry, in h.

MMKNILAIQSHVVYGHAGNSAAEFPMRRLGANVWPLNTVQFSNHTQYGKWTGCVMPPSHLTEIVQGIAAIDKLHTCDAVLSGYLGSAEQGEHILGIVRQVKAANPQAKYFCDPVMGHPEKGCIVAPGVAEFHVRHGLPASDIIAPNLVELEILCEHAVNNVEEAVLAARELIAQGPQIVLVKHLARAGYSRDRFEMLLVTADEAWHISRPLVDFGMRQPVGVGDVTSGLLLVKLLQGATLQEALEHVTAAVYEIMVTTKAMQEYELQVVAAQDRIAKPEHYFSATKL: 2.89
MNLQHHFLIAMPALQDPIFRRSVVYICEHNTNGAMGIIVNKPLENLKIEGILEKLKITPEPRDESIRLDKPVMLGGPLAEDRGFILHTPPSNFASSIRISDNTVMTTSRDVLETLGTDKQPSDVLVALGYASWEKGQLEQEILDNAWLTAPADLNILFKTPIADRWREAAKLIGVDILTMPGVAGHA [P0A8W5]: 2.93
MKLKNTLLASALLSAMAFSVNAATELTPEQAAAVKPFDRVVVTGRFNAIGEAVKAVSRRADKEGAASFYVVDTSDFGNSGNWRVVADLYKADAEKAEETSNRVINGVVELPKDQAVLIEPFDTVTVQGFYRSQPEVNDAITKAAKAKGAYSFYIVRQIDANQGGNQRITAFIYKKDAKKRIVQSPDVIPADSEAGRAALAAGGEAAKKVEIPGVATTASPSSEVGRFFETQSSKGGRYTVTLPDGTKVEELNKATAAMMVPFDSIKFSGNYGNMTEVSYQVAKRAAKKGAKYYHITRQWQERGNNLTVSADLYK: 3.13

Provide total protein half-life in vivo values for the following items, in order.
1. MQEYTNHSDTTFALRNISFRVPGRTLLHPLSLTFPAGKVTGLIGHNGSGKSTLLKMLGRHQPPSEGEILLDAQPLESWSSKAFARKVAYLPQQLPPAEGMTVRELVAIGRYPWHGALGRFGAADREKVEEAISLVGLKPLAHRLVDSLSGGERQRAWIAMLVAQDSRCLLLDEPTSALDIAHQVDVLSLVHRLSQERGLTVIAVLHDINMAARYCDYLVALRGGEMIAQGTPAEIMRGETLEMIYGIPMGILPHPAGAAPVSFVY
2. MNTLTFLLSTVIELYTMVLLLRIWMQWAHCDFYNPFSQFVVKVTQPIIGPLRRVIPAMGPIDSASLLVAYILSFIKAIVLFKVVTFLPIIWIAGLLILLKTIGLLIFWVLLVMAIMSWVSQGRSPIEYVLIQLADPLLRPIRRLLPAMGGIDFSPMILVLLLYVINMGVAEVLQATGNMLLPGLWMAL
3. MLKTIRKHGITLALFAAGSTGLTAAINQMTKTTIAEQASLQQKALFDQVLPAERYNNALAQSCYLVTAPELGKGEHRVYIAKQDDKPVAAVLEATAPDGYSGAIQLLVGADFNGTVLGTRVTEHHETPGLGDKIELRLSDWITHFAGKKISGADDAHWAVKKDGGDFDQFTGATITPRAVVNAVKRAGLYAQTLPAQLSQLPACGE

[2.65, 2.92, 3.07]
